src = patent EP4438597A1

target: αSYN fibrils (Homo sapiens); assay: [3H]PiB competition binding assay on αSYN fibrils; conditions: read-out: Ki
pKi: −log10 of the molar value.
Lab note: compare pKi against 7. Equal or greater, write 1 (yes). Smaller, write 0 (no).

{"columns": ["compound", "category"],
 "data": [
  ["COc1ccc2c(c1)sc(C=Cc1ccc(N3CCCCC3)cc1)[n+]2C [8b]", "1 (yes)"],
  ["C[n+]1c(C=Cc2ccc(N3CCCCC3)cc2)sc2cc(F)ccc21 [9b]", "0 (no)"],
  ["Cc1ccc2c(c1)sc(C=Cc1ccc(N3CCCCC3)cc1)[n+]2C [7b]", "1 (yes)"],
  ["COc1cccc2sc(C=Cc3ccc(N4CCCCC4)cc3)[n+](C)c12 [2b]", "1 (yes)"],
  ["C[n+]1c(C=CC=Cc2ccc(N3CCCCC3)cc2)sc2ccccc21 [14b]", "1 (yes)"],
  ["Cc1ccc2nc(C=Cc3ccc(N4CCCCC4)cc3)sc2c1 [7a]", "0 (no)"],
  ["C[n+]1c(C=Cc2ccc(N3CCCCC3)cc2)sc2ccc(F)cc21 [6b]", "0 (no)"]
]}

Input line: Please check the record COc1cccc2c1sc(C=Cc1ccc(N3CCCCC3)cc1)[n+]2C [11b] and state if its pKi is at or above 7.
Output line: 0 (no)
